Test system: super sensitive Gram-negative Escherichia coli (E. coli) BAS849
Assay: Antibacterial activity, microbroth dilution MIC, E. coli BAS849
Assay type: cell-based
Conditions: Escherichia coli; E. coli BAS849, microbroth dilution; read-out: MIC, BAS849
REPORTED_ENDPOINT: MIC

Qu. Entry CCc1c(-c2ccc(I)cc2)[nH]c(=O)c(C(=O)O)c1O [Cpd 81] : reported MIC = ?
Ans. 1 to 3.5 µg/mL

Qu. Entry CCc1cc(C(=O)O)c(=O)[nH]c1-c1ccc(N2CC[C@@H](F)C2)cc1 [Cpd 154] : reported MIC = ?
Ans. < 1 µg/mL

Qu. Entry CCc1cc(C(=O)O)c(=O)[nH]c1-c1ccc(N2CC3NC3C2)cc1 (stereo not drawn) [Cpd 209] : reported MIC = ?
Ans. 3.5 to 12.5 µg/mL

Qu. Entry CCc1c(-c2ccc(N(C)C)c(C)c2)[nH]c(=O)c(C(=O)O)c1O [Cpd 63] : reported MIC = ?
Ans. 1 to 3.5 µg/mL

Qu. Entry CCc1cc(C(=O)O)c(=O)[nH]c1-c1ccc(CN2CCC(N(C)C)C2)n1C (stereo not drawn) [Cpd 353] : reported MIC = ?
Ans. 12.5 to 150 µg/mL

Qu. Entry CCc1cc(C(=O)O)c(=O)[nH]c1-c1ccc(N2C[C@H]3C[C@@H](NC)[C@H]3C2)cc1.Cl [Cpd 210] : reported MIC = ?
Ans. 1 to 3.5 µg/mL

Qu. Entry CCc1c(-c2ccc(N3C[C@H]4C[C@@H](N)C[C@H]4C3)cc2)[nH]c(=O)c(C(=O)O)c1O [Cpd 248] : reported MIC = ?
Ans. 1 to 3.5 µg/mL

Qu. Entry CCc1cc(C(=O)O)c(=O)[nH]c1-c1ccc(N2C[C@@H](N)[C@H](OC)C2)cc1.Cl [Cpd 134] : reported MIC = ?
Ans. < 1 µg/mL

Qu. Entry CCc1cc(C(=O)O)c(=O)[nH]c1-c1ccc(N2CC3CCCCC3(C#N)C2)cc1 (stereo not drawn) [Cpd 219] : reported MIC = ?
Ans. < 1 µg/mL

Qu. Entry CCc1cc(C(=O)O)c(=O)[nH]c1-c1ccccc1 [Cpd 75] : reported MIC = ?
Ans. 1 to 3.5 µg/mL

Qu. Entry O=C(O)c1cc(C2CC2)c(-c2ccc(N3CCCC3)cc2)[nH]c1=O [Cpd 164] : reported MIC = ?
Ans. < 1 µg/mL

Qu. Entry C/C=C/c1c(-c2ccc(N(C)C)cc2)[nH]c(=O)c(C(=O)O)c1O [Cpd 330] : reported MIC = ?
Ans. 1 to 3.5 µg/mL

Qu. Entry CCc1cc(C(=O)O)c(=O)[nH]c1-c1ccc(N2CC[C@H](O)C2=O)cc1 [Cpd 117] : reported MIC = ?
Ans. 12.5 to 150 µg/mL

Qu. Entry CCc1c(-c2ccc(N3CCC(OC)CC3)cc2)[nH]c(=O)c(C(=O)O)c1O [Cpd 282] : reported MIC = ?
Ans. < 1 µg/mL

Qu. Entry CCc1cc(C(=O)O)c(=O)[nH]c1-c1ccc(N2CC=CC2)cc1 [Cpd 301] : reported MIC = ?
Ans. < 1 µg/mL

Qu. Entry CCc1cc(C(=O)O)c(=O)[nH]c1-c1ccc(N(C)c2ccccc2)cc1 [Cpd 158] : reported MIC = ?
Ans. < 1 µg/mL

Qu. Entry CCc1cc(C(=O)O)c(=O)[nH]c1-c1ccc(N2CCC(CNCc3cccc(Cl)c3)C2)cc1 (stereo not drawn) [Cpd 236] : reported MIC = ?
Ans. < 1 µg/mL

Qu. Entry CCc1cc(C(=O)O)c(=O)[nH]c1-c1ccc(N2CCC2)cc1 [Cpd 111] : reported MIC = ?
Ans. < 1 µg/mL
